Target: T1, human BCMA on NCI-H929, OPM2 and Raji cells (human, UniProt Q02223 1-184)
T1 construct: endogenous BCMA of human cell lines; also called TNFRSF17; CD269
T1 chain: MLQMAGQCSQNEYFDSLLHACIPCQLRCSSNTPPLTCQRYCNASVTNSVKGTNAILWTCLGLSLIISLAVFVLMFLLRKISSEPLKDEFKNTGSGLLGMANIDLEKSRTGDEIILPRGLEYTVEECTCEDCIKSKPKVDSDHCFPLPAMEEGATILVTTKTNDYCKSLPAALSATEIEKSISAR
Experiment: flow cytometry, NCI-H929 cells
QUANTITY NAME: pKd
When answering, recall that pKd equals minus log10 of the concentration in mol/L, and write that number alone.

Previously resolved entries follow.
* AB212-ADL1-D2-02 (antibody, human IgG1, kappa, V domains shown, ADL1-D2 linker-payload on cysteine residues of the antibody, DAR 5.17) VH: QVQLVQSGAEVKKPGSSVKVSCKASGGTFSNYWIHWVRQAPGQGLEWMGGTYRSHSDTNYNQKFKSRVTITADKSTSTAYMELSSLRSEDTAVYYCARGAIYHGYDVIENWGQGTLVTVSS VL: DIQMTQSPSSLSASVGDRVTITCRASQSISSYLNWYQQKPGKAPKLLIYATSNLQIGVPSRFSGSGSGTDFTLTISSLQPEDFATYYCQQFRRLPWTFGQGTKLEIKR | 8.89
* AB215-ADL1-D2-02 (antibody, human IgG1, kappa, V domains shown, ADL1-D2 linker-payload on cysteine residues of the antibody, DAR 3.96) VH: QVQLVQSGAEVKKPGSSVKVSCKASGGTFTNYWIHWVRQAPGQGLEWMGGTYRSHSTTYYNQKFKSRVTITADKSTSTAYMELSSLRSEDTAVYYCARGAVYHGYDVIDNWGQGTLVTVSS VL: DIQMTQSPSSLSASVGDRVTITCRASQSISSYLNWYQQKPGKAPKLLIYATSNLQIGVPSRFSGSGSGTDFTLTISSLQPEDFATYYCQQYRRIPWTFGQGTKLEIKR | 8.89
* AB200-ADL1-D2-02 (antibody, human IgG1, kappa, V domains shown, ADL1-D2 linker-payload on cysteine residues of the antibody, DAR 3.92, antibody-drug conjugate; also called AB200 ADC incorporating the ADL1-D2 linker-payload) VH: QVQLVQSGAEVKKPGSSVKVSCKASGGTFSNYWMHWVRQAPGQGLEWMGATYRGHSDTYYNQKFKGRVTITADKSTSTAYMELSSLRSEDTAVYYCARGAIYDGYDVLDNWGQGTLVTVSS VL: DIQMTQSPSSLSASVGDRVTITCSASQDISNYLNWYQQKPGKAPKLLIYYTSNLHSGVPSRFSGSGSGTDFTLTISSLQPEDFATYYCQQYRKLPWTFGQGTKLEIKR | 8.02
* AB218-ADL1-D2-02 (antibody, human IgG1, kappa, V domains shown, ADL1-D2 linker-payload on cysteine residues of the antibody, DAR 3.77) VH: QVQLVQSGAEVKKPGSSVKVSCKASGGTFSNYWIHWVRQAPGQGLEWMGATYRSQSTTYYNQKFKSRVTITADKSTSTAYMELSSLRSEDTAVYYCARGAVYHGYDVIDNWGQGTLVTVSS VL: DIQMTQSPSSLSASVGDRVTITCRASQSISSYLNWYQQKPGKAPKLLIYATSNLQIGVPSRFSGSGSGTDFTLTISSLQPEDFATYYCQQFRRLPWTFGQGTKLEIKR | 9.48
* AB216-ADL1-D2-02 (antibody, human IgG1, kappa, V domains shown, ADL1-D2 linker-payload on cysteine residues of the antibody, DAR 3.8) VH: QVQLVQSGAEVKKPGSSVKVSCKASGGTFSNYWIHWVRQAPGQGLEWMGATYRIQSDTYYNQKYKSRVTITADKSTSTAYMELSSLRSEDTAVYYCARGAVYHGYDVIDNWGQGTLVTVSS VL: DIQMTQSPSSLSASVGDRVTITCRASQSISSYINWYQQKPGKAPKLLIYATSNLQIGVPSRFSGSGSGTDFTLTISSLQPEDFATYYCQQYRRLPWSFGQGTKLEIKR | 9.08
* AB214-ADL1-D2-02 (antibody, human IgG1, kappa, V domains shown, ADL1-D2 linker-payload on cysteine residues of the antibody, DAR 4.12) VH: QVQLVQSGAEVKKPGSSVKVSCKASGGTFSNYWIHWVRQAPGQGLEWMGATYRSQSDTYYNQKYKSRVTITADKSTSTAYMELSSLRSEDTAVYYCARGAVYHGYDVIDNWGQGTLVTVSS VL: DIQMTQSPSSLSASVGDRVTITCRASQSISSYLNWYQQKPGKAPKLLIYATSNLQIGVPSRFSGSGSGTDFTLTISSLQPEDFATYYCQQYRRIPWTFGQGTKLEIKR | 8.99
* AB200-ADL5-D4-05 (antibody, human IgG1, kappa, V domains shown, ADL5-D4 linker-payload on cysteine residues of the antibody, DAR 4.39, antibody-drug conjugate) VH: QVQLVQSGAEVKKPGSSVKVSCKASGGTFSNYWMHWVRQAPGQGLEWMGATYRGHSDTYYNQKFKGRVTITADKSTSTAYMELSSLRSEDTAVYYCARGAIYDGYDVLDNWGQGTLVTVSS VL: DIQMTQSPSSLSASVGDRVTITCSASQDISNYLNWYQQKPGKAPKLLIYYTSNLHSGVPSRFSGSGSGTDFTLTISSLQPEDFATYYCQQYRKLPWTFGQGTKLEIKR | 8.01
* AB213-ADL1-D2-02 (antibody, human IgG1, kappa, V domains shown, ADL1-D2 linker-payload on cysteine residues of the antibody, DAR 4.18) VH: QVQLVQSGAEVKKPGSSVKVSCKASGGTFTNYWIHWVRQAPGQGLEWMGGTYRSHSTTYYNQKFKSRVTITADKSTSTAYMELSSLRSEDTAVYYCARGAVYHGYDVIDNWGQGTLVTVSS VL: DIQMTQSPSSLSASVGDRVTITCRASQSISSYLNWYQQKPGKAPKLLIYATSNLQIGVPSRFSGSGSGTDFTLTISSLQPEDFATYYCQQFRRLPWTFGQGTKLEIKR | 9.30

Task item: Fill in the blank: the reported pKd of AB217-ADL1-D2-02 (antibody, human IgG1, kappa, V domains shown, ADL1-D2 linker-payload on cysteine residues of the antibody, DAR 3.7) VH: QVQLVQSGAEVKKPGSSVKVSCKASGGTFTNYWIHWVRQAPGQGLEWMGATYRSHSDTYYAQKYKSRVTITADKSTSTAYMELSSLRSEDTAVYYCARGAVYHGYDVIDNWGQGTLVTVSS VL: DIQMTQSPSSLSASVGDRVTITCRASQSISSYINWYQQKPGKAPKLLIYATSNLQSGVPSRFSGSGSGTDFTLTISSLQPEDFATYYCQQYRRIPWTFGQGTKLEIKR is ____.
Reply: 9.44

Task item: Thanks! And AB200-ADL1-D12-05 (antibody, human IgG1, kappa, V domains shown, ADL1-D12 linker-payload on cysteine residues of the antibody, DAR 4.24, antibody-drug conjugate) VH: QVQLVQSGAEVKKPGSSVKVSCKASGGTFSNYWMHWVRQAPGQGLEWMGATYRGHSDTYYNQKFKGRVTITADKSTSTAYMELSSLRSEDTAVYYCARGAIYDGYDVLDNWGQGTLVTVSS VL: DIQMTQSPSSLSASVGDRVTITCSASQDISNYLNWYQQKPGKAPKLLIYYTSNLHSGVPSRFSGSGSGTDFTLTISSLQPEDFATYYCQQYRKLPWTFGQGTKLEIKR ?
Reply: 8.01
